# Test system: HS 578T breast
# METHOD DESCRIPTION: NCI tumour cell line growth inhibition, 48 h
OBSERVABLE: TGI

>>> result("O=c1[nH]n(Cc2ccccc2Cl)c2ccccc12")
"> 100 µM"
>>> result("COCCOC(=O)C(C)=[N+]=[N-]")
"> 100 µM"
>>> result("CCCNc1nc2ccccc2c2c1S(=O)(=O)c1ccc(Cl)cc1C2=O")
"> 50 µM"
>>> result("Cc1nc(Nc2nc3ccccc3o2)nc(-c2cccc([N+](=O)[O-])c2)c1C(=O)Nc1ccc(F)c(Cl)c1")
"38.8 µM"

So what's the measured TGI for this one? CC(C)(C)C1CCC2c3c([nH]c4ccccc34)C3C(=O)N(c4ccc5c(c4)C(=O)c4ccccc4C5=O)C(=O)C3C2C1 (stereo not given)
> 100 µM
